Tested on: LOX IMVI melanoma
assay_text: NCI-60 one-dose screen, 48 h
condition_description: 10 µM unless noted
Compounds without any hit were thinned out: in the full panel of roughly 83,000, 20% have a hit. The source made the active and inactive calls. Rule for the calls: active = growth percent below 10; inactive = the rest.
Respond with a class label; see label 1 (active), label 0 (inactive)

Use the examples below as a reference point.
# sample_smiles, group_label
rows = [
    ("Cc1cc(N=Nc2ccc(-c3ccc(N=Nc4ccc(O)c(C(=O)O)c4)cc3)cc2)c(N)c(N=Nc2ccc(C(=O)O)cc2)c1N", "label 0"),
    ("CC(=O)[C@@]1(O)[C@H](C)C[C@H]2[C@@H]3C=C(C)C4=Cc5c(cnn5-c5ccccc5)C[C@]4(C)[C@H]3[C@@H](O)C[C@@]21C", "label 1"),
    ("O=C(/C=C/c1ccccc1)n1c(-c2ccccc2)nc2ccccc21", "label 0"),
]

**Q:** I would be grateful if you could indicate the recorded call for Cc1n(Cc2ccc3ccccc3n2)cc[n+]1Cc1ccc2ccccc2c1 .
**A:** label 1

**Q:** For CCSc1ccc([C@@H]2[C@@H](N)C(=O)N2c2cc(OC)c(OC)c(OC)c2)cc1 , what call appears in the results of this test?
**A:** label 0

**Q:** So what was the verdict on CC(=O)N[C@@H](CCC(N)=O)C(=O)O in this test?
**A:** label 0

**Q:** Could you check what this test reported for CC(=O)c1ccc(Nc2nc(Cl)nc(Oc3c(Cl)cccc3Cl)n2)cc1 ?
**A:** label 0

**Q:** Would you mind telling me which call this test gave COc1ccc(Br)c2ccccc12 ?
**A:** label 0

**Q:** Dear all, I need the recorded test outcome for COc1ccc(/C=C(/C(=O)N2CCN(c3ccccc3)CC2)c2cc(OC)c(OC)c(OC)c2)cc1N , thank you.
**A:** label 0

* * *

System: OVCAR-5 ovarian
assay_text: NCI-60 one-dose screen, 48 h (100 = growth as untreated, 0 = no growth, -100 = all killed)
condition_description: 10 µM unless noted
The panel holds about 83,000 compounds, 20% with a hit somewhere; the sample as a whole holds those more often.
Provide the recorded growth for the entries that follow.
One number for each entry, in %.

# compound, number
measured = [
    ("CNCCCNc1ccnc2cc(Cl)ccc12", 13.1),
    ("CC1=C(C(=O)Nc2ccc(F)cc2)C(c2ccc(Cl)cc2)C2=C(CC(C)(C)CC2=O)N1 (stereo unspecified)", 93.5),
    ("Nc1c(C(=O)Nc2cccc(Cl)c2)sc2ncc(Br)cc12", 84.1),
    ("COc1ccc(-c2n[nH]nc2-c2cc(OC)c3c(c2)OCO3)cc1", 42.7),
    ("O=C(Nc1cnc(C(F)(F)F)cn1)c1cc(Cl)ccc1O", 28.3),
]

Read the next record carefully.
**Q:** Give the value of growth reported for the following: Nc1nc(N)c2cc(CNc3ccc(Cl)c(Cl)c3)ccc2n1
**A:** 48.4

* * *

System: IGROV1 ovarian
assay_text: NCI-60 one-dose screen, 48 h (100 = growth as untreated, 0 = no growth, -100 = all killed)
condition_description: 10 µM unless noted
This is part of a sample that, as a whole, favours compounds with a hit. Of some 83,000 tested, about 20% had one in any assay.
Assignment: determine reported growth for the given compounds.
Give bare numbers, in %.

Example results:
# compound, unit_info, growth
rows = [
    ("COc1ccc(-c2oc(=O)ccc2-c2cc(OC)c(OC)c(OC)c2)cc1F", "%", 80.4),
    ("Cn1c(=O)c2c3c(oc2c2ccccc21)C(=O)c1ccccc1C3=O", "%", 68.7),
    ("Fc1ccc(-c2ccnc3nc(-c4ccncc4)nn23)cc1", "%", 104),
    ("COc1ccc(/C=C2\\N=C(c3cccnc3)N(c3ccccc3)NC2=O)cc1", "%", 115),
    ("Cc1cc(C)cc(Nc2cc(C)nc3nc(C(F)(F)F)nn23)c1", "%", 21.6),
]

Provide growth values for the following items, in order.
1. Cc1cc(NC(=O)c2ccc(N)cc2)ccc1N=Nc1ccc2cc(S(=O)(=O)O)cc(S(=O)(=O)O)c2c1
2. Cc1cc(Cl)c2ccc(N(C)C)cc2n1
3. COc1ccc(C(=O)C(C#N)c2cc(OC)c(OC)c(OC)c2)cc1 (stereo unspecified)
4. COc1ccc(/C=c2\c(=O)n(-c3ccccc3)c3nn4c(n23)=NNC42CCCCC2)cc1
5. COC1CC(N)C2OC(c3ccccc3)OCC2O1 (stereo unspecified)
6. CC(C)OC(=O)c1ccc([N+](=O)[O-])cc1
7. O=C(Nc1ccc(OS(=O)(=O)c2ccc(F)cc2)cc1)C12CC3CC(CC(C3)C1)C2

**A:**
1. 102
2. 106
3. 110
4. 88.5
5. 110
6. 119
7. 90.2
